Reference source: PubChem BioAssay AID1963972

Entries and their IC50 values follow.
system: 945468-187-T-J2-PDC spheroids viability; experiment: Anticancer human tumor 945468-187-T-J2-PDC patient-derived rectal carcinoma cell line growth inhibition [PI3K]; details: curve of first compound; second compound 0.00316 µM; spheroids with HUVEC and MSC;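 also: spheroids exposed to compounds for seven days before reading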

Examples from the recorded data:
>  <molecule>
CCCS(=O)(=O)Nc1ccc(F)c(C(=O)c2c[nH]c3ncc(-c4ccc(Cl)cc4)cc23)c1F + COc1c(OCCCN2CCOCC2)ccc2c3n(c(=NC(=O)c4cnc(N)nc4)nc12)CCN3

>  <IC50>
5.78 µM

$$$$
>  <molecule>
Cn1ncc(Cl)c1-c1cc(C(=O)NC(CN)Cc2cccc(F)c2)sc1Cl (stereo unspecified) + COc1c(OCCCN2CCOCC2)ccc2c3n(c(=NC(=O)c4cnc(N)nc4)nc12)CCN3

>  <IC50>
> 10 µM

$$$$
>  <molecule>
CC(=O)c1c(C)c2cnc(Nc3ccc(N4CCNCC4)cn3)nc2n(C2CCCC2)c1=O + COc1c(OCCCN2CCOCC2)ccc2c3n(c(=NC(=O)c4cnc(N)nc4)nc12)CCN3

>  <IC50>
> 0.1 µM

$$$$
>  <molecule>
Cn1nccc1Nc1nccc(-c2ccn(C(CO)c3ccc(Cl)c(F)c3)c(=O)c2)n1 (stereo unspecified) + COc1c(OCCCN2CCOCC2)ccc2c3n(c(=NC(=O)c4cnc(N)nc4)nc12)CCN3

>  <IC50>
> 10 µM

$$$$
>  <molecule>
Cn1cnc2c(F)c(Nc3ccc(Br)cc3Cl)c(C(=O)NOCCO)cc21 + CC(Nc1ccc2c(c1)OCCn1cc(N3C(=O)OCC3C(F)F)nc1-2)C(N)=O

>  <IC50>
> 3 µM

$$$$
>  <molecule>
CCCS(=O)(=O)Nc1ccc(F)c(C(=O)c2c[nH]c3ncc(-c4ccc(Cl)cc4)cc23)c1F + CC(Nc1ccc2c(c1)OCCn1cc(N3C(=O)OCC3C(F)F)nc1-2)C(N)=O

>  <IC50>
> 10 µM

$$$$
>  <molecule>
CCN1CCN(Cc2ccc(Nc3ncc(F)c(-c4cc(F)c5nc(C)n(C(C)C)c5c4)n3)nc2)CC1 + CC(Nc1ccc2c(c1)OCCn1cc(N3C(=O)OCC3C(F)F)nc1-2)C(N)=O

>  <IC50>
> 1 µM

$$$$
>  <molecule>
CC1(C)CCC(CN2CCN(c3ccc(C(=O)NS(=O)(=O)c4ccc(NCC5CCOCC5)c([N+](=O)[O-])c4)c(Oc4cnc5[nH]ccc5c4)c3)CC2)=C(c2ccc(Cl)cc2)C1 + CC(Nc1ccc2c(c1)OCCn1cc(N3C(=O)OCC3C(F)F)nc1-2)C(N)=O

>  <IC50>
7.88 µM

$$$$

response.value for CNC(=O)c1ccc(N2C(=S)N(c3ccc(C#N)c(C(F)(F)F)c3)C(=O)C2(C)C)cc1F + CC(Nc1ccc2c(c1)OCCn1cc(N3C(=O)OCC3C(F)F)nc1-2)C(N)=O (field: IC50) = > 10 µM

response.value for CC(Cn1ccc(-c2ccc(C#N)c(Cl)c2)n1)NC(=O)c1cc(C(C)O)[nH]n1 (stereo unspecified) + CC(Nc1ccc2c(c1)OCCn1cc(N3C(=O)OCC3C(F)F)nc1-2)C(N)=O (field: IC50) = > 10 µM

response.value for CC1(C)CCC(Nc2ncc(C(F)(F)F)c(-c3c[nH]c4c(P(C)(C)=O)c(C#N)ccc34)n2)CN1 (stereo unspecified) + COc1c(OCCCN2CCOCC2)ccc2c3n(c(=NC(=O)c4cnc(N)nc4)nc12)CCN3 (field: IC50) = 0.663 µM
